# system: Bcl-2 protein (Recombinant Human Bcl-2 Protein) (Homo sapiens, UniProt P10415)
# Construct: purchased Novus NBP2-34889
# Sequence (P10415 whole entry): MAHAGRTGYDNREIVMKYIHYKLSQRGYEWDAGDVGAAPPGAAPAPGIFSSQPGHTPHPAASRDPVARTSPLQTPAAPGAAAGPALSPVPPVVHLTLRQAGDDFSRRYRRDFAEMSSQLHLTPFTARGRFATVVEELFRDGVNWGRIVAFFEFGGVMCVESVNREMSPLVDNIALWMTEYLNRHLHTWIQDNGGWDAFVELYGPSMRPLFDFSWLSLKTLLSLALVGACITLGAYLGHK
# assay explanation: Binding evaluation of mixture library compounds to Bcl-2 using AS-MS (affinity selection mass spectrometry)
# condition info: AS-MS on the mixture of 1200 library compounds; ASMS Ratio(%)=(A−C)/B×100; replicate n = 1
# Protocol: […] Then, analysis of the 1200 compounds was carried out for samples A, B, and C with TraceFinder 5.1 (Thermo Fisher Scientific) and CHANCE Software (in-house), and the ASMS Ratio (%) was calculated according to the following calculation formula. […]

smiles entry: CCOc1cncc(-c2ccc(CN3CCN(c4ccc(C(=O)Nc5ccc(OC)cc5)cc4)CC3)cc2F)c1
unit spec: %
ASMS ratio (%) n = 1: 1.6

smiles entry: CCOc1cncc(-c2cc(CN3CCN(c4ccc(C(=O)N(C)CC56CC7CC(CC(C7)C5)C6)cc4)CC3)cc(OC(F)(F)F)c2)c1
unit spec: %
ASMS ratio (%) n = 1: −7.5

smiles entry: CCOc1cncc(-c2ccc(CN3CCN(c4ccc(C(=O)Nc5ccc(OC)cc5)cc4)CC3)c(CC)c2)c1
unit spec: %
ASMS ratio (%) n = 1: 10.3

* * *

# system: Bcl-2 protein (Recombinant Human Bcl-2 Protein) (Homo sapiens, UniProt P10415)
# Construct: purchased Novus NBP2-34889
# assay explanation: Binding evaluation of mixture library compounds to Bcl-2 using AS-MS (affinity selection mass spectrometry)
# condition info: n = 2
Entries and their measured ASMS ratio (%) follow.

compound: CCOc1cncc(-c2ccc(C(=O)N3CCN(c4ccc(C(=O)NS(=O)(=O)C(C)(C)C)cc4)CC3)c3ccccc23)c1 [B2L036-01]
unit spec: %
ASMS ratio (%): 0.0

compound: CCOc1cccc(C#Cc2ccccc2C(=O)N2CCN(c3ccc(C(=O)NS(=O)(=O)CCC(F)(F)F)nn3)CC2)c1 [B2N007-01]
unit spec: %
ASMS ratio (%): 0.0

compound: CCOc1cccc(-c2ccc(CN3CCN(c4ccc(C(=O)NS(=O)(=O)c5ccc(NCCSc6ccccc6)c(C(F)(F)F)c5)nn4)CC3)c3ccccc23)c1 [B2R091-01]
unit spec: %
ASMS ratio (%): 1.8

compound: CCOc1cncc(-c2csc(C(=O)N3CCN(c4ccc(C(=O)NS(=O)(=O)C(C)(C)C)nn4)CC3)c2)c1 [B2L002-01]
unit spec: %
ASMS ratio (%): 0.0

compound: CCOc1cncc(-c2ccc(CN3CCN(c4ccc(C(=O)NS(=O)(=O)CCC(F)(F)F)cc4)CC3)c3ccccc23)c1 [B2N066-01]
unit spec: %
ASMS ratio (%): 0.0

* * *

# reported ASMS ratio (%) n = 1; entries follow
# system: Bcl-2 protein (Recombinant Human Bcl-2 Protein) (Homo sapiens)
# Construct: purchased Novus NBP2-34889
# assay explanation: Binding evaluation of mixture library compounds to Bcl-2 using AS-MS (affinity selection mass spectrometry)
# condition info: AS-MS on the mixture of 1200 library compounds; ASMS Ratio(%)=(A−C)/B×100; replicate n = 1
# Description: […] Then, analysis of the 1200 compounds was carried out for samples A, B, and C with TraceFinder 5.1 (Thermo Fisher Scientific) and CHANCE Software (in-house), and the ASMS Ratio (%) was calculated according to the following calculation formula. […]

compound: CCOc1cncc(-c2cc(OC)c(CN3CCN(c4ccc(C(=O)N(C)CC56CC7CC(CC(C7)C5)C6)nn4)CC3)c(OC)c2)c1 [B3A086-01]
system: Bcl-2 protein (Recombinant Human Bcl-2 Protein) (Homo sapiens)
ASMS ratio (%) n = 1: −2.7
//
compound: CCOc1cncc(-c2cc(CN3CCN(c4ccc(C(=O)N(C)CC56CC7CC(CC(C7)C5)C6)cc4)CC3)cc(C(F)(F)F)c2)c1 [B3A062-01]
system: Bcl-2 protein (Recombinant Human Bcl-2 Protein) (Homo sapiens)
ASMS ratio (%) n = 1: 2.2
//
compound: CCOc1cncc(-c2ccc(CN3CCN(c4ccc(C(=O)N(C)CC56CC7CC(CC(C7)C5)C6)cc4)CC3)c(OC)c2)c1 [B3A054-01]
system: Bcl-2 protein (Recombinant Human Bcl-2 Protein) (Homo sapiens)
ASMS ratio (%) n = 1: 0.0
//
compound: CCOc1cncc(C#Cc2cncc(C(=O)N3CCN(c4ccc(C(=O)Nc5ccc(OC)cc5)nn4)CC3)c2)c1 [B1O010-01]
system: Bcl-2 protein (Recombinant Human Bcl-2 Protein) (Homo sapiens)
ASMS ratio (%) n = 1: 0.0
//
compound: CCOc1cncc(-c2ccccc2CCC(=O)N2CCN(c3ccc(C(=O)N(C)CC45CC6CC(CC(C6)C4)C5)cc3)CC2)c1 [B3A034-01]
system: Bcl-2 protein (Recombinant Human Bcl-2 Protein) (Homo sapiens)
ASMS ratio (%) n = 1: 1.3
//
compound: CCOc1cncc(-c2ccc(CN3CCN(c4ccc(C(=O)N(CC)CC)cc4)CC3)cc2C)c1 [B4J048-01]
system: Bcl-2 protein (Recombinant Human Bcl-2 Protein) (Homo sapiens)
ASMS ratio (%) n = 1: 1.2
